So I've got a bunch of compounds here, and I need their nuclei count values.
Assay: reduction of polyQ htt aggregates in cells – imaging, exon1htt(103Q)mCFP cells, high-content imaging, primary screen (AID 483);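 also: compound exposure lasted 3 days before fixation; percent of the per-plate median nuclei count of sample wells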
Conditions: exon1htt(103Q)mCFP cell line, aggregate imaging, at 2 µM; measured here: cell count, toxicity
Give just the number in %; leave the unit off.

Ask: What does the data say about its nuclei count? Entry: Cc1sc2nc(SCC(=O)N3CCN(CCO)CC3)n(-c3ccccc3)c(=O)c2c1C
Result: 111

Ask: What does the data say about its nuclei count? Entry: COc1ccccc1NC(=O)N(Cc1ccco1)Cc1cc2cccc(C)c2[nH]c1=O
Result: 105

Ask: What does the data say about its nuclei count? Entry: CC1(C)C2CCC1(C)C(OC(=O)CSc1nc(N)cc(=O)[nH]1)C2 (configuration not stated)
Result: 103

Ask: What does the data say about its nuclei count? Entry: OC(CNCCc1ccccc1)c1ccccc1 (configuration not stated)
Result: 91.9

Ask: What does the data say about its nuclei count? Entry: CCOc1ccc2c(c1)n(CO)c(=S)n2CO
Result: 68.8

Ask: What does the data say about its nuclei count? Entry: O=C(C1CCN(c2nnc(-n3cccc3)s2)CC1)N1CCN(Cc2ccc3c(c2)OCO3)CC1
Result: 115

Ask: What does the data say about its nuclei count? Entry: COc1cccc(OCCn2ccnc2)c1
Result: 82.1

Ask: What does the data say about its nuclei count? Entry: Nc1nnc(-c2ccccc2)c(-c2ccccc2)n1
Result: 83.9

Ask: What does the data say about its nuclei count? Entry: CCC1CCCCN1CCCNC(=O)c1ccc(CS(=O)(=O)Cc2ccccc2F)o1 (configuration not stated)
Result: 94.4

Ask: What does the data say about its nuclei count? Entry: O=C(CN1CCN(C2CCCCC2)CC1)Nc1ccccc1-c1ccccc1
Result: 110

Ask: What does the data say about its nuclei count? Entry: CCCCC(CC)Cn1c2nc3ccccc3nc2c2c(=N)oc(C)nc21 (configuration not stated)
Result: 64.9

Ask: What does the data say about its nuclei count? Entry: CCCC(CCC)n1[nH]c(=O)c2c(C)cc(C)nc21
Result: 105

Ask: What does the data say about its nuclei count? Entry: Cc1nc(SCc2ccc(Br)cc2)[nH]c(=O)c1C
Result: 76.4

Ask: What does the data say about its nuclei count? Entry: CC(C)(C)NC(=O)CN(Cc1cccs1)C(=O)c1csnn1
Result: 85

Ask: What does the data say about its nuclei count? Entry: CCOC(=O)Nc1ccc2c(c1)N(C(=O)CN(CC)CC)c1ccccc1C=C2
Result: 108

Ask: What does the data say about its nuclei count? Entry: CCN(CC)C(=O)Oc1ccc(NC(C)=O)cc1
Result: 99.8

Ask: What does the data say about its nuclei count? Entry: CS(=O)(=O)c1ccc2nc(NC(=O)CCC(=O)c3cccs3)sc2c1
Result: 105

Ask: What does the data say about its nuclei count? Entry: O=C(NC1CCS(=O)(=O)C1)OC1CCCCC1 (configuration not stated)
Result: 111

Ask: What does the data say about its nuclei count? Entry: COc1ccc(CN2C(=O)CN=C2Nc2ccc(C)cc2C)cc1
Result: 122

Ask: What does the data say about its nuclei count? Entry: COc1ccc(Br)cc1-c1noc(-c2ccccc2)n1
Result: 102

Ask: What does the data say about its nuclei count? Entry: Cc1ccc(N2CC(C(=O)Nc3nnc(C)s3)CC2=O)cc1 (configuration not stated)
Result: 95.6

Ask: What does the data say about its nuclei count? Entry: CCOC(=O)c1c(NC(=O)CSc2nc3c(c(=O)n(C)c(=O)n3C)n2C(C)C)sc(C)c1C
Result: 110

Ask: What does the data say about its nuclei count? Entry: O=C(OCN1C(=O)c2ccccc2C1=O)c1ccc2c(=O)n3c(nc2c1)CCC3
Result: 79.3

Ask: What does the data say about its nuclei count? Entry: COCCNc1nc(C(C)(C)C)nc2c1nnn2Cc1ccccc1Cl
Result: 106

Ask: What does the data say about its nuclei count? Entry: FC(F)(F)c1nnc2ccc(NCn3nnc4ccccc43)nn12
Result: 85.2

Ask: What does the data say about its nuclei count? Entry: O=C(CSc1nnc(Cc2ccccc2)n1-c1cccc(Cl)c1)N1CCOCC1
Result: 85.8

Ask: What does the data say about its nuclei count? Entry: Cc1[nH]c(=O)[nH]c(=O)c1S(=O)(=O)N1CCCC(C(=O)NCc2ccco2)C1 (configuration not stated)
Result: 104

Ask: What does the data say about its nuclei count? Entry: COc1ccc(C(=O)OCC(=O)NCc2ccco2)cc1OC
Result: 107

Ask: What does the data say about its nuclei count? Entry: COc1ccc(C(=O)NC(=O)CSc2nnc(-c3ccco3)n2-c2ccccc2)cc1
Result: 104

Ask: What does the data say about its nuclei count? Entry: COC(=O)CCc1c(C)c(C#N)c2nc3ccccc3n2c1N1CCCC1
Result: 103

Ask: What does the data say about its nuclei count? Entry: Cc1ccc(S(=O)(=O)C2(C(=O)Nc3cccnc3)CC2)cc1
Result: 93.3

Ask: What does the data say about its nuclei count? Entry: CCNc1ccc2c(Cl)cc(=O)oc2c1
Result: 72.6

Ask: What does the data say about its nuclei count? Entry: O=C(Nc1ccc(CN2CCOCC2)cc1)c1cc2ccccc2oc1=O
Result: 118

Ask: What does the data say about its nuclei count? Entry: O=C(CNCCC1=CCCCC1)Nc1ccccc1N1CCCCC1
Result: 107

Ask: What does the data say about its nuclei count? Entry: O=C(Cc1c[nH]c2ccccc12)N1CCc2ccccc21
Result: 90

Ask: What does the data say about its nuclei count? Entry: COc1ccccc1OCc1nc2ccccc2[nH]1
Result: 101

Ask: What does the data say about its nuclei count? Entry: CCCn1c2c(c(O)c(C(=O)NC)c1=O)CCCC2
Result: 101

Ask: What does the data say about its nuclei count? Entry: CCOC(=O)N1CCC(N2C(=O)c3ccccc3C2Nc2cccnc2)CC1 (configuration not stated)
Result: 100

Ask: What does the data say about its nuclei count? Entry: Nc1sccc1C(=O)c1ccccc1
Result: 110

Ask: What does the data say about its nuclei count? Entry: Cc1cc(=O)n(CC(C)C)c(O)c1C#N
Result: 94.3

Ask: What does the data say about its nuclei count? Entry: O=C(COC(=O)C1=COCCO1)Nc1ccccc1Oc1ccccc1
Result: 90.2

Ask: What does the data say about its nuclei count? Entry: COc1ccc(-c2nsc(SCC(=O)Nc3cc(C)on3)n2)cc1
Result: 84.3

Ask: What does the data say about its nuclei count? Entry: COc1ccc(-c2noc(COc3ccc(Cl)c(C)c3)n2)cc1
Result: 103

Ask: What does the data say about its nuclei count? Entry: CCOc1ccc(CCNc2nc3c(c(=O)n(C)c(=O)n3C)n2CC)cc1OCC
Result: 89.6

Ask: What does the data say about its nuclei count? Entry: CCOc1cc2oc(=O)c3c(c2cc1Cl)CCC3
Result: 104

Ask: What does the data say about its nuclei count? Entry: CC(=O)Nc1ccc(NS(=O)(=O)c2ccc(Cl)c(C(=O)O)c2)cc1
Result: 124

Ask: What does the data say about its nuclei count? Entry: CCN(CC)C(=O)c1sc(NC(=O)c2ccco2)c(C#N)c1C
Result: 118

---

Experiment: reduction of polyQ htt aggregates in cells – imaging, exon1htt(103Q)mCFP cells, high-content imaging, primary screen (AID 483);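 also: compound exposure lasted 3 days before fixation; percent of the per-plate median nuclei count of sample wells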
Conditions: exon1htt(103Q)mCFP cell line, aggregate imaging, at 2 µM; measured here: cell count, toxicity
So I've got a bunch of compounds here, and I need their nuclei count values.
Give just the number in %; leave the unit off.

Ask: What does the data say about its nuclei count? Entry: COc1cc(OC)c(OC)cc1CN(C)CCc1ccccn1
Result: 115

Ask: What does the data say about its nuclei count? Entry: CCOC(=O)Cn1c(S(=O)(=O)Cc2ccccc2)nc2ccccc21
Result: 110

Ask: What does the data say about its nuclei count? Entry: Nc1cc(-c2ccccc2)ccc1O
Result: 88.4

Ask: What does the data say about its nuclei count? Entry: COCCNc1nc(SCC(=O)N2CCN(c3ccccc3)CC2)nc2ccccc12
Result: 70.8

Ask: What does the data say about its nuclei count? Entry: Cc1cc(C)nc(NS(=O)(=O)c2ccc(NC(=O)Cn3c(=O)oc4ccccc43)cc2)n1
Result: 63.8

Ask: What does the data say about its nuclei count? Entry: O=C(CN1C(=O)CC(c2ccco2)Sc2ccccc21)Nc1ccc2c(c1)OCCO2 (stereo not given)
Result: 99.6

Ask: What does the data say about its nuclei count? Entry: CCN(CC)c1ccc(NC(=O)c2cncc(Br)c2)cc1
Result: 86.8

Ask: What does the data say about its nuclei count? Entry: CC(=O)N1CCN(c2ccc(NC(=O)c3ccc(C(C)(C)C)cc3)cc2)CC1
Result: 97.8

Ask: What does the data say about its nuclei count? Entry: CCOC(=O)c1cccc(NC(=O)CSc2nc3cccnc3n2C)c1
Result: 111

Ask: What does the data say about its nuclei count? Entry: CCOc1ccccc1C1CC(=O)Nc2cc3c(cc21)OCO3 (stereo not given)
Result: 86.9

Ask: What does the data say about its nuclei count? Entry: CCOC(=O)C1CCN(c2c(NC3CCCCCCC3)c(=O)c2=O)CC1
Result: 103

Ask: What does the data say about its nuclei count? Entry: CCCC(=O)Nc1ccccc1NC(=O)CCC
Result: 103

Ask: What does the data say about its nuclei count? Entry: CN(Cc1cnn(C)c1)C(=O)c1cc2ccccc2oc1=O
Result: 92.1

Ask: What does the data say about its nuclei count? Entry: CCOC(=O)c1[nH]c(C)c(C(=O)Nc2ccc(C)c(Cl)c2)c1C
Result: 97.4

Ask: What does the data say about its nuclei count? Entry: COc1ccc(C2c3c(-c4ccccc4O)n[nH]c3C(=O)N2CCc2ccc(OC)c(OC)c2)cc1 (stereo not given)
Result: 68.1

Ask: What does the data say about its nuclei count? Entry: CCOC(=O)c1cccc(NC(=O)CSc2nc3ccccc3c(=O)n2CC)c1
Result: 98.9

Ask: What does the data say about its nuclei count? Entry: CC1CCN(c2oc(-c3cccc4ccccc34)nc2C#N)CC1
Result: 102

Ask: What does the data say about its nuclei count? Entry: Cc1ccc(F)cc1NC(=O)C1CCCN(c2ncccn2)C1 (stereo not given)
Result: 117

Ask: What does the data say about its nuclei count? Entry: O=C(Nc1cccc(NC(=O)c2cccnc2)c1)c1cccnc1
Result: 96.4

Ask: What does the data say about its nuclei count? Entry: COC(=O)c1[nH]c2cc(OC)ccc2c1NC(=O)CN1CCOCC1
Result: 105

Ask: What does the data say about its nuclei count? Entry: C=C(c1cccc2ccccc12)P(=O)(O)O
Result: 92.8

Ask: What does the data say about its nuclei count? Entry: O=C(Nc1ccc2c(c1)C(=O)N(C1CCCCC1)C2=O)C1CCCO1 (stereo not given)
Result: 71.5

Ask: What does the data say about its nuclei count? Entry: CCOC(=O)c1cc2c(=O)n3cccc(C)c3nc2n(Cc2ccco2)c1=NC(=O)c1cccnc1
Result: 108

Ask: What does the data say about its nuclei count? Entry: O=C(Nc1ccc(S(=O)(=O)NCCc2ccccc2)cc1)c1ccc(Br)o1
Result: 62.9

Ask: What does the data say about its nuclei count? Entry: Cc1cccc(C)c1OCc1nnc2c3cnn(C)c3ncn12
Result: 97.5

Ask: What does the data say about its nuclei count? Entry: Cc1cc(C)cc(OCCCC(=O)O)c1
Result: 118

Ask: What does the data say about its nuclei count? Entry: CCN(CCNC(=O)C1CCN(S(=O)(=O)c2cccc3cccnc23)CC1)c1ccccc1
Result: 112

Ask: What does the data say about its nuclei count? Entry: CCC(=O)c1ccc(OCC(O)CN2CCN(S(=O)(=O)N3CCCCC3)CC2)cc1 (stereo not given)
Result: 102

Ask: What does the data say about its nuclei count? Entry: CC(NS(=O)(=O)c1ccc(OCC(=O)N2CCOCC2)c(Cl)c1)c1ccccc1 (stereo not given)
Result: 104

Ask: What does the data say about its nuclei count? Entry: O=C(c1cc2nc(-c3ccco3)cc(C(F)(F)F)n2n1)N1CCN(c2ccccn2)CC1
Result: 101

Ask: What does the data say about its nuclei count? Entry: CCC(=O)Nc1ccc(NC(=O)c2ccccn2)cn1
Result: 102

Ask: What does the data say about its nuclei count? Entry: Cc1ccc(Cn2ncc3c(NCCCN4CCOCC4)ncnc32)cc1
Result: 84.8

Ask: What does the data say about its nuclei count? Entry: CCCC(OC(=O)CN1C(=O)COc2ccccc21)C(=O)NC1CCCC1 (stereo not given)
Result: 129

Ask: What does the data say about its nuclei count? Entry: COc1cc(-c2nc(-c3ccncc3)no2)cc(OC)c1OC
Result: 88.9

Ask: What does the data say about its nuclei count? Entry: CCOc1ccccc1-n1c(SCC(=O)NCc2ccco2)nnc1-c1ccncc1
Result: 93

Ask: What does the data say about its nuclei count? Entry: Cn1c(C(=O)NCCC2=CCCCC2)cc2c(=O)n3ccccc3nc21
Result: 92.2

Ask: What does the data say about its nuclei count? Entry: CCC(=O)c1ccc(OC(=O)c2ccc(Br)o2)cc1
Result: 99.8

Ask: What does the data say about its nuclei count? Entry: CCn1nccc1C(=O)Nc1nccs1
Result: 108

Ask: What does the data say about its nuclei count? Entry: CCCCSc1nc2c(cnn2-c2ccc(Cl)cc2)c(=O)[nH]1
Result: 103

Ask: What does the data say about its nuclei count? Entry: O=S(=O)(Cc1ccc(Cl)cc1)Nc1ccc2c(c1)OCO2
Result: 99.4

Ask: What does the data say about its nuclei count? Entry: O=C(CCSc1ccccc1)Nc1ccc(S(=O)(=O)N2CCOCC2)cc1
Result: 105

Ask: What does the data say about its nuclei count? Entry: O=C(c1ccc(CNc2c(N3CCCC3)c(=O)c2=O)cc1)N1CCc2ccccc2C1
Result: 100

Ask: What does the data say about its nuclei count? Entry: C1=Nc2c(NCc3ccccc3)ncnc2Oc2ccccc21
Result: 98.1

Ask: What does the data say about its nuclei count? Entry: Cc1cc(N2C(=O)C(O)=C(C(=O)c3ccc(C)o3)C2c2cccs2)no1 (stereo not given)
Result: 75.8

Ask: What does the data say about its nuclei count? Entry: Cc1ccc(S(=O)(=O)NCCSc2nnnn2-c2ccc(C(N)=O)cc2)cc1
Result: 115
